Target: BSEP (Homo sapiens, UniProt O95342)
Sequence (O95342 whole entry): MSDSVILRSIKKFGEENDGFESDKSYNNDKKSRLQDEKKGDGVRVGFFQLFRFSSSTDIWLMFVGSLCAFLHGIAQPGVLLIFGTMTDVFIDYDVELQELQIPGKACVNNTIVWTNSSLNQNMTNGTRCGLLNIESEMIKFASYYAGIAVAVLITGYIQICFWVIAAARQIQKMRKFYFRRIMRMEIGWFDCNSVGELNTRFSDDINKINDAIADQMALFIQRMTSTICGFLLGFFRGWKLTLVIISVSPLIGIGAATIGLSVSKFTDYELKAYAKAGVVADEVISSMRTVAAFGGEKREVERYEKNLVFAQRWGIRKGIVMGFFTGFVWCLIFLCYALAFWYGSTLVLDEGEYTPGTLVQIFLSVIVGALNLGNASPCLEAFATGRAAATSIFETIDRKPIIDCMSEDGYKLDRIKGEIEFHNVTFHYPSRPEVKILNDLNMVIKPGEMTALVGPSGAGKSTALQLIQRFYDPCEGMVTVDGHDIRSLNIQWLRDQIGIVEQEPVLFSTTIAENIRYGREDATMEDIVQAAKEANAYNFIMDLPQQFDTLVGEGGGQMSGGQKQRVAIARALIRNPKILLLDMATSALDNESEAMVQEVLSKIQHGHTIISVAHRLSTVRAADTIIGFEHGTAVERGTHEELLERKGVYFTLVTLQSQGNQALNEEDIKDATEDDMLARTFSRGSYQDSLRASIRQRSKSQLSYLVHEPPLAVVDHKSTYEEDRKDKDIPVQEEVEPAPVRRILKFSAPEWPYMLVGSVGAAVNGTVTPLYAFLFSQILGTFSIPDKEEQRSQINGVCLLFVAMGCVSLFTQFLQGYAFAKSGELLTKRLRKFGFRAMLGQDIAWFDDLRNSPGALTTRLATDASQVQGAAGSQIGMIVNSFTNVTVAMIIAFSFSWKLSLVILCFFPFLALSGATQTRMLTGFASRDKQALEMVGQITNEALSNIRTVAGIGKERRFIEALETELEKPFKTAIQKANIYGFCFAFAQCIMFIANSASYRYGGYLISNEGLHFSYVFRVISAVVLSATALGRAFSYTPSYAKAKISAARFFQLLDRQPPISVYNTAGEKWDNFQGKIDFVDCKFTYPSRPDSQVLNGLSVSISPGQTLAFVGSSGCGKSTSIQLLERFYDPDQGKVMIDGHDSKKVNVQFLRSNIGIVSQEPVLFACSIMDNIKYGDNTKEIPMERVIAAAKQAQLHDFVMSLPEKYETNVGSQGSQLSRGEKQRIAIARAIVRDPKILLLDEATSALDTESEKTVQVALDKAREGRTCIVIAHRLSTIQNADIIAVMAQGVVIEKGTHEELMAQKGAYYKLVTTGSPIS
Assay: ATP-dependent uptake of test article by BSEP-transfected Sf9 membrane vesicles (substrate assessment)
Conditions: test article 10 μM + cyclosporine 20 μM
Marks after values point to notes of the source that are not given here.

{"columns": ["COMPOUND", "Uptake Activity of test article, Mg-ATP"],
 "data": [
  ["O=C(O)CCCc1ccccc1 [Sodium phenylbutyrate]", "BLQ"],
  ["C[C@H](CCC(=O)NCC(=O)O)[C@H]1CC[C@H]2[C@@H]3[C@@H](O)C[C@@H]4C[C@H](O)CC[C@]4(C)[C@H]3CC[C@]12C", "BLQ"],
  ["C[C@H](CCC(=O)O)[C@H]1CC[C@H]2[C@@H]3[C@@H](O)C[C@@H]4C[C@H](O)CC[C@]4(C)[C@H]3CC[C@]12C", "5.61^b pmol/minute/mg protein"]
]}
